Listing of entries alongside the reported growth.
System: SN12C renal
EXPERIMENT SUMMARY: NCI-60 one-dose screen, 48 h (100 = growth as untreated, 0 = no growth, -100 = all killed)
STUDY CONDITIONS: 10 µM unless noted
This is part of a sample that, as a whole, favours compounds with a hit. Of some 83,000 tested, about 20% had one in any assay. The source made the active and inactive calls. The calls were made as follows: active = growth percent below 10; inactive = the rest.

COc1ccc(COc2cc3oc(=O)c4cc(C(C)O)ccc4c3cc2OC)cc1 (configuration not stated) :: 68.5% (inactive)

Pending compound:
Prompt: For the compound `COc1cc2ncnc(Nc3ccc(F)c(Cl)c3)c2cc1NC(=O)/C=C/CN1CCCCC1` , what growth is on record?
Response: -76.1% (active)

----------
System: BT-549 breast
EXPERIMENT SUMMARY: NCI-60 one-dose screen, 48 h (100 = growth as untreated, 0 = no growth, -100 = all killed)
STUDY CONDITIONS: 10 µM unless noted
Compounds without any hit were thinned out: in the full panel of roughly 83,000, 20% have a hit.
MEASUREMENT LABEL: growth (%)
Your answer should be a plain number; it is taken to be in %.

Observe how each entry below is paired with its result.
Nc1ccc(S(=O)(=O)O)c2cc(S(=O)(=O)O)cc(O)c12 :: 99
Cc1ccsc1C(NC(=O)c1ccccc1)c1cc(Cl)c2cccnc2c1O (centres undefined) :: 35.4
O=C(/C=C/c1ccc2c(c1)OCO2)c1c(O)c2ccccc2oc1=O :: 95.8
NC[C@@](O)(c1ccc(Cl)cc1)c1ccc(-c2cn[nH]c2)cc1 :: 14.6
CCc1cc2c(c3ccc(C(=O)CBr)cc13)CCCC2 :: 80.3
N#Cc1c(-c2ccc(C(F)(F)F)cc2)cc(NCC2CCS(=O)(=O)CC2)n2c1nc1ccccc12 :: 64.9
COc1cc2c(cc1OCCCN1Cc3ccc(OCCCCC(=O)N4CCC(CCN5CCCC5)CC4)cc3C1)N=C(N)C21CCCC1 :: 63.4
COC(=O)CCCNc1c(-c2c(O)c(O)cc3c(O)c(-c4c(C)cc5c(-c6nc7ccccn7c6NCCCC(=O)OC)c(O)c(O)cc5c4O)c(C)cc23)nc2ccccn12 :: 16

Pending compound:
Prompt: For the compound `FC(F)c1nc2ccccc2n1-c1nc(N2CCOCC2)nc(N2CCOCC2)n1` , what growth is on record?
Response: -8.49

----------
System: OVCAR-8 ovarian
EXPERIMENT SUMMARY: NCI-60 one-dose screen, 48 h (100 = growth as untreated, 0 = no growth, -100 = all killed)
STUDY CONDITIONS: 10 µM unless noted
The panel holds about 83,000 compounds, 20% with a hit somewhere; the sample as a whole holds those more often.
Listing of entries alongside the reported growth.
Your answer should be a plain number; it is taken to be in %.

Observe how each entry below is paired with its result.
O=C(Cc1ccc(/C=C/C(=O)c2ncc[nH]2)cc1)Nc1ccc(Br)cc1 :: 6.77
c1ccc2c(c1)CCN(NCCN1CCCC1)C2 :: 101
NC(=O)c1c(OCc2c(F)cc(Br)cc2F)nsc1NC(=O)NCCCCN1CCCC1 :: 19.4
COc1cc2cc(NCc3ccc(Cl)cc3)nc(C)c2cc1OC :: 40.9
CCN(CC)Cc1cc(Nc2cc(C(F)(F)F)c(C#N)c3nc4ccccc4n23)ccc1O :: 9.84

Prompt: For the compound `CCc1ccc(C2=C(O)C(=O)C(c3ccc(CC)cc3)=C(O)C2=O)cc1` , what growth is on record?
Response: -59

Prompt: Subsequent entry: `Cc1c(Cn2c(C)nc3c(C(=O)O)cc(N4CCOCC4)cc32)cccc1C(F)(F)F`
Response: 92.1

Prompt: Subsequent entry: `Cc1cc(O)cc(-c2c(-c3ccnc(-c4cccnc4)c3)cnn2C)c1`
Response: 73.5

Prompt: Subsequent entry: `FC(F)c1nc2ccccc2n1-c1nc(N2CCOCC2)nc(N2CCOCC2)n1`
Response: -8.56

Prompt: Subsequent entry: `Clc1ccc2c(NCCNc3nc(N4CCCC4)nc4ccccc34)ccnc2c1`
Response: 3.61

----------
Tested on: NCI-H460 lung
EXPERIMENT SUMMARY: NCI-60 one-dose screen, 48 h
STUDY CONDITIONS: 10 µM unless noted
The panel holds about 83,000 compounds, 20% with a hit somewhere; the sample as a whole holds those more often. Active and inactive are the calls of the source. The calls were made as follows: active = growth percent below 10; inactive = the rest.
Hi there, use one of these labels in your reply, thanks! Y = active, N = inactive

CCOc1cccc(/C=N/NC(=O)c2ccccc2Nc2ccnc(C(F)(F)F)c2)c1O :: Y

Prompt: Given `Cc1ccc(NC(=O)c2ccc(CN3CC[C@H](N(C)C)C3)c(C(F)(F)F)c2)cc1Nc1nccc(-c2cncnc2)n1` , state the outcome it received in this test.
Response: Y

Prompt: Subsequent entry: `O=C(COc1ccc(/C=C2\Cc3ccc(Cl)cc3C2=O)cc1)Nc1nccs1`
Response: N

Prompt: Subsequent entry: `CCCCCCCC(=O)SCC/C=C/[C@@H]1CC(=O)NCc2nc(co2)C2=N[C@@](C)(CS2)C(=O)N[C@@H](C(C)C)C(=O)O1`
Response: Y

----------
System: MCF7 breast
EXPERIMENT SUMMARY: NCI-60 one-dose screen, 48 h (100 = growth as untreated, 0 = no growth, -100 = all killed)
STUDY CONDITIONS: 10 µM unless noted
The panel holds about 83,000 compounds, 20% with a hit somewhere; the sample as a whole holds those more often.
Quick rule: growth of at least 80% means fulfilled, below that means not fulfilled.

O=C(Cn1ccnc1)Nc1ccc(-c2nc3ccccc3s2)cc1 :: not fulfilled
COc1cc(NC2CCC(=O)N2c2ccc(Cl)cc2Cl)cc(OC)c1OC (stereo not given) :: fulfilled
COc1ncc(-c2ccc3nccc(-c4ccnnc4)c3c2)cc1NS(=O)(=O)c1ccc(F)cc1F :: not fulfilled

Please look at the following compound next.
Prompt: Is growth for `O=C(COc1ccc(/C=C2\Cc3ccc(Cl)cc3C2=O)cc1)Nc1nccs1` at or above 80%?
Response: fulfilled

----------
Tested on: CCRF-CEM leukemia
EXPERIMENT SUMMARY: NCI-60 one-dose screen, 48 h
STUDY CONDITIONS: 10 µM unless noted
About 83,000 compounds went through this panel and 20% of them were active in at least one assay; those are over-represented in the sample as a whole. Activity calls are given as the source filed them. How the source made its calls: active means growth percent below 10; inactive means the rest.
Hi there, use one of these labels in your reply, thanks! active, inactive

CC1CCC(n2cnc3c(Cl)ncnc32)O1 (stereo not drawn) :: inactive

Prompt: Given `Cc1ccccc1Nc1nc2nonc2nc1Nc1cccc(C)c1C` , state the outcome it received in this test.
Response: inactive

----------
System: HS 578T breast
EXPERIMENT SUMMARY: NCI-60 one-dose screen, 48 h (100 = growth as untreated, 0 = no growth, -100 = all killed)
STUDY CONDITIONS: 10 µM
The panel holds about 83,000 compounds, 20% with a hit somewhere; the sample as a whole holds those more often.
MEASUREMENT LABEL: growth (%)
Your answer should be a plain number; it is taken to be in %.

Observe how each entry below is paired with its result.
CC(=O)CC1CCCC1c1ccc2ccccc2c1 (stereo unspecified) :: 100
Cc1sc2c(c1C)c(=O)nc1c(-c3nc4ccccc4s3)n[nH]n12 :: 93.3
Cc1nn(-c2nc3ccccc3[nH]2)c2c1C(c1ccc(O)cc1)CC(=O)N2 (stereo unspecified) :: 28.1
NS(=O)(=O)c1ccc(CCN2C(=O)/C(=C\c3ccc(Cl)cc3)C=C2c2ccc3ccccc3c2)cc1 :: 101
CC(=Nc1ccccc1)C1=C(O)C(Cc2ccccc2)NC1=O (stereo unspecified) :: -15.3

Pending compound:
Prompt: For the compound `O=C(COc1cccc(/C=C2\Cc3ccc(Cl)cc3C2=O)c1)Nc1nccs1` , what growth is on record?
Response: 105

----------
Test system: KM12 colon
EXPERIMENT SUMMARY: NCI-60 one-dose screen, 48 h
STUDY CONDITIONS: 10 µM unless noted
The panel holds about 83,000 compounds, 20% with a hit somewhere; the sample as a whole holds those more often. Calls of active or inactive are those of the source. Rule for the calls: active = growth percent below 10; inactive = the rest.
Hi there, use one of these labels in your reply, thanks! active, inactive

Reference set (4 entries):
COc1cc2c(cc1OCCCCCN1CCN(c3ncnc4ccccc34)CC1)N=CC1CCCN1C2=O (stereo unspecified) :: active
CNC(=O)c1cc(Oc2ccc3nc(NC(=O)Nc4ccc(Cl)c(C(F)(F)F)c4)sc3c2)ccn1 :: inactive
COc1cc(CCc2cc(NC(=O)c3ccc(N4C[C@@H](C)N[C@@H](C)C4)cc3)n[nH]2)cc(OC)c1 :: active
Cc1cccc(NC(=O)[C@@H]2c3ccccc3C(=O)N(c3ccc(Cl)cc3)[C@H]2c2ccc(Cl)cc2)n1 :: inactive

Prompt: Given `O=c1sn(-c2cccc3ccccc23)c(=O)n1Cc1ccccc1` , state the outcome it received in this test.
Response: inactive

Prompt: Subsequent entry: `CCN1CCN(c2nc(C)cc(N(CCCNc3ccnc4cc(Cl)ccc34)Cc3ccc4c(c3)OCO4)n2)CC1`
Response: inactive

Prompt: Subsequent entry: `CCCCCCCC(=O)SCC/C=C/[C@@H]1CC(=O)NCc2cc(ccn2)C2=N[C@@](C)(CS2)C(=O)N[C@@H](C(C)C)C(=O)O1`
Response: active
